# Tested on: Escherichia coli
# Test Protocol: Antibacterial activity against Escherichia coli ATCC 25922 after 24 hrs by broth microdilution method
# Assay type: functional
# Conditions: ATCC 25922, 24 h
Peptide text beside a SMILES is read from it. * marks the point of attachment. Palmitoyl = CCCCCCCCCCCCCCCC(=O)*; Octanoyl = CCCCCCCC(=O)*
Quick reference for MIC among some compounds
Field format: number, assumed µM, no unit text.

compound="CCCCCCCC(=O)N[C@@H](CCCNC(=N)N)C(=O)NCC(=O)N[C@@H](CCCNC(=N)N)C(=O)N[C@@H](CCCCN)C(=O)NCC(=O)NCC(=O)N[C@@H](CCCNC(=N)N)C(=O)N[C@@H](CCCNC(=N)N)C(=O)N[C@@H](CCCCN)C(=O)N[C@@H](CCCCN)C(=O)O (Octanoyl-RGRKGGRRKK-OH)" observable=MIC number=6
compound="CCCCCCCCCCCCCCCC(=O)N[C@@H](CCCNC(=N)N)C(=O)NCC(=O)N[C@@H](CCCNC(=N)N)C(=O)N[C@@H](CCCCN)C(=O)NCC(=O)NCC(=O)N[C@@H](CCCNC(=N)N)C(=O)N[C@@H](CCCNC(=N)N)C(=O)N[C@@H](CCCCN)C(=O)N[C@@H](CCCCN)C(=O)O (Palmitoyl-RGRKGGRRKK-OH)" observable=MIC number=10

--- query ---
## Task Any idea what MIC was measured for CC(=O)N[C@@H](CCCNC(=N)N)C(=O)NCC(=O)N[C@@H](CCCNC(=N)N)C(=O)N[C@@H](CCCCN)C(=O)N[C@H](C(=O)N[C@H](C(=O)N[C@@H](CCCNC(=N)N)C(=O)N[C@@H](CCCNC(=N)N)C(=O)N[C@@H](CCCCN)C(=O)N[C@@H](CCCCN)C(=O)O)C(C)C)C(C)C (Ac-RGRKVVRRKK-OH) ?
## Result 40

* * *

# System: Lipopolysaccharide (LPS)
# Test Protocol: Displacement of dansylcadaverine from Escherichia coli 0111:B4 LPS at 15 to 30 uM after 5 mins by high-throughput fluorescence displacement assay
Bridge positions count the residues as written; N and C are the ends. Peptide text beside a SMILES is read from it. I, II: the chains in the order shown. * marks the point of attachment. Octanoyl = CCCCCCCC(=O)*; Hexanoyl = CCCCCC(=O)*; Butyryl = CCCC(=O)*
Field: label. Allowed values: 1 (Activity < 80%) or 0 (Activity >= 80%).

For orientation, consider the following solved cases.
compound="CCCCCCCC(=O)N[C@@H](CCCNC(=N)N)C(=O)NCC(=O)N[C@@H](CCCNC(=N)N)C(=O)N[C@@H](CCCCN)C(=O)N[C@H](C(=O)N[C@H](C(=O)N[C@@H](CCCNC(=N)N)C(=O)N[C@@H](CCCNC(=N)N)C(=O)N[C@@H](CCCCN)C(=O)N[C@@H](CCCCN)C(=O)O)C(C)C)C(C)C (Octanoyl-RGRKVVRRKK-OH)" class_label=1
compound="CC(=O)N[C@@H](CCCNC(=N)N)C(=O)NCC(=O)N[C@@H](CCCNC(=N)N)C(=O)N[C@@H](CCCCN)C(=O)NCC(=O)NCC(=O)N[C@@H](CCCNC(=N)N)C(=O)N[C@@H](CCCNC(=N)N)C(=O)NCCCC[C@H](NC(=O)[C@H](CCCNC(=N)N)NC(=O)[C@H](CCCNC(=N)N)NC(=O)CNC(=O)CNC(=O)[C@H](CCCCN)NC(=O)[C@H](CCCNC(=N)N)NC(=O)CNC(=O)[C@H](CCCNC(=N)N)NC(C)=O)C(=O)N[C@@H](CCCCN)C(=O)O (I: Ac-RGRKGGRRKK-OH / II: Ac-RGRKGGRR; amide I:9-II:C)" class_label=1
compound="CCCC(=O)N[C@@H](CCCNC(=N)N)C(=O)NCC(=O)N[C@@H](CCCNC(=N)N)C(=O)N[C@@H](CCCCN)C(=O)NCC(=O)NCC(=O)N[C@@H](CCCNC(=N)N)C(=O)N[C@@H](CCCNC(=N)N)C(=O)NCCCC[C@H](NC(=O)[C@H](CCCNC(=N)N)NC(=O)[C@H](CCCNC(=N)N)NC(=O)CNC(=O)CNC(=O)[C@H](CCCCN)NC(=O)[C@H](CCCNC(=N)N)NC(=O)CNC(=O)[C@H](CCCNC(=N)N)NC(=O)CCC)C(=O)N[C@@H](CCCCN)C(=O)O (I: Butyryl-RGRKGGRRKK-OH / II: Butyryl-RGRKGGRR; amide I:9-II:C)" class_label=1
compound="N=C(N)NCCC[C@H](NC(=O)CNC(=O)CNC(=O)[C@H](CCCCN)NC(=O)[C@H](CCCNC(=N)N)NC(=O)CNC(=O)[C@@H](N)CCCNC(=N)N)C(=O)N[C@@H](CCCNC(=N)N)C(=O)NCCCC[C@H](NC(=O)[C@H](CCCNC(=N)N)NC(=O)[C@H](CCCNC(=N)N)NC(=O)CNC(=O)CNC(=O)[C@H](CCCCN)NC(=O)[C@H](CCCNC(=N)N)NC(=O)CNC(=O)[C@@H](N)CCCNC(=N)N)C(=O)N[C@@H](CCCCN)C(=O)O (I: H-RGRKGGRRKK-OH / II: H-RGRKGGRR; amide I:9-II:C)" class_label=0
compound="CCCCCC(=O)N[C@@H](CCCNC(=N)N)C(=O)NCC(=O)N[C@@H](CCCNC(=N)N)C(=O)N[C@@H](CCCCN)C(=O)NCC(=O)NCC(=O)N[C@@H](CCCNC(=N)N)C(=O)N[C@@H](CCCNC(=N)N)C(=O)NCCCC[C@H](NC(=O)[C@H](CCCNC(=N)N)NC(=O)[C@H](CCCNC(=N)N)NC(=O)CNC(=O)CNC(=O)[C@H](CCCCN)NC(=O)[C@H](CCCNC(=N)N)NC(=O)CNC(=O)[C@H](CCCNC(=N)N)NC(=O)CCCCC)C(=O)N[C@@H](CCCCN)C(=O)O (I: Hexanoyl-RGRKGGRRKK-OH / II: Hexanoyl-RGRKGGRR; amide I:9-II:C)" class_label=0

Could you now consider this next compound?
## Task Criterion: Activity strictly below 80%. Is it met by CCCCCCCC(=O)N[C@@H](CCCNC(=N)N)C(=O)NCC(=O)N[C@@H](CCCNC(=N)N)C(=O)N[C@@H](CCCCN)C(=O)NCC(=O)NCC(=O)N[C@@H](CCCNC(=N)N)C(=O)N[C@@H](CCCNC(=N)N)C(=O)NCCCC[C@H](NC(=O)[C@H](CCCNC(=N)N)NC(=O)[C@H](CCCNC(=N)N)NC(=O)CNC(=O)CNC(=O)[C@H](CCCCN)NC(=O)[C@H](CCCNC(=N)N)NC(=O)CNC(=O)[C@H](CCCNC(=N)N)NC(=O)CCCCCCC)C(=O)N[C@@H](CCCCN)C(=O)O (I: Octanoyl-RGRKGGRRKK-OH / II: Octanoyl-RGRKGGRR; amide I:9-II:C) ?
## Result 0

* * *

Quick reference for MIC among some compounds
# Tested on: Escherichia coli
# Test Protocol: Antibacterial activity against Escherichia coli ATCC 25922 after 24 hrs by broth microdilution method
# Assay type: functional
# Conditions: ATCC 25922, 24 h
Bridge positions count the residues as written; N and C are the ends. Peptide text beside a SMILES is read from it. I, II: the chains in the order shown. * marks the point of attachment. Myristoyl = CCCCCCCCCCCCCC(=O)*; Hexanoyl = CCCCCC(=O)*; Butyryl = CCCC(=O)*
Field format: number, assumed µM, no unit text.

Worked set:
compound="CCCC(=O)N[C@@H](CCCNC(=N)N)C(=O)NCC(=O)N[C@@H](CCCNC(=N)N)C(=O)N[C@@H](CCCCN)C(=O)NCC(=O)NCC(=O)N[C@@H](CCCNC(=N)N)C(=O)N[C@@H](CCCNC(=N)N)C(=O)NCCCC[C@H](NC(=O)[C@H](CCCNC(=N)N)NC(=O)[C@H](CCCNC(=N)N)NC(=O)CNC(=O)CNC(=O)[C@H](CCCCN)NC(=O)[C@H](CCCNC(=N)N)NC(=O)CNC(=O)[C@H](CCCNC(=N)N)NC(=O)CCC)C(=O)N[C@@H](CCCCN)C(=O)O (I: Butyryl-RGRKGGRRKK-OH / II: Butyryl-RGRKGGRR; amide I:9-II:C)" number=3
compound="CCCC(=O)N[C@@H](CCCNC(=N)N)C(=O)NCC(=O)N[C@@H](CCCNC(=N)N)C(=O)N[C@@H](CCCCN)C(=O)N[C@H](C(=O)N[C@H](C(=O)N[C@@H](CCCNC(=N)N)C(=O)N[C@@H](CCCNC(=N)N)C(=O)N[C@@H](CCCCN)C(=O)N[C@@H](CCCCN)C(=O)O)C(C)C)C(C)C (Butyryl-RGRKVVRRKK-OH)" number=40
compound="N=C(N)NCCC[C@H](NC(=O)CNC(=O)[C@@H](N)CCCNC(=N)N)C(=O)N[C@@H](CCCCN)C(=O)NCC(=O)NCC(=O)N[C@@H](CCCNC(=N)N)C(=O)N[C@@H](CCCNC(=N)N)C(=O)N[C@@H](CCCCN)C(=O)N[C@@H](CCCCN)C(=O)O (H-RGRKGGRRKK-OH)" number=20
compound="CCCCCC(=O)N[C@@H](CCCNC(=N)N)C(=O)NCC(=O)N[C@@H](CCCNC(=N)N)C(=O)N[C@@H](CCCCN)C(=O)NCC(=O)NCC(=O)N[C@@H](CCCNC(=N)N)C(=O)N[C@@H](CCCNC(=N)N)C(=O)N[C@@H](CCCCN)C(=O)N[C@@H](CCCCN)C(=O)O (Hexanoyl-RGRKGGRRKK-OH)" number=20
compound="CCCCCCCCCCCCCC(=O)N[C@@H](CCCNC(=N)N)C(=O)NCC(=O)N[C@@H](CCCNC(=N)N)C(=O)N[C@@H](CCCCN)C(=O)NCC(=O)NCC(=O)N[C@@H](CCCNC(=N)N)C(=O)N[C@@H](CCCNC(=N)N)C(=O)N[C@@H](CCCCN)C(=O)N[C@@H](CCCCN)C(=O)O (Myristoyl-RGRKGGRRKK-OH)" number=6

--- query ---
## Task What is its MIC for Escherichia coli? Entry: CCCCCCCCCCCCCC(=O)N[C@@H](CCCNC(=N)N)C(=O)NCC(=O)N[C@@H](CCCNC(=N)N)C(=O)N[C@@H](CCCCN)C(=O)N[C@H](C(=O)N[C@H](C(=O)N[C@@H](CCCNC(=N)N)C(=O)N[C@@H](CCCNC(=N)N)C(=O)N[C@@H](CCCCN)C(=O)N[C@@H](CCCCN)C(=O)O)C(C)C)C(C)C (Myristoyl-RGRKVVRRKK-OH)
## Result 6
